- system tested: human GluN1/GluN2B NMDA receptors (Homo sapiens, UniProt Q05586+Q13224)
- Sequence (Q13224 27-1484, other chains not shown): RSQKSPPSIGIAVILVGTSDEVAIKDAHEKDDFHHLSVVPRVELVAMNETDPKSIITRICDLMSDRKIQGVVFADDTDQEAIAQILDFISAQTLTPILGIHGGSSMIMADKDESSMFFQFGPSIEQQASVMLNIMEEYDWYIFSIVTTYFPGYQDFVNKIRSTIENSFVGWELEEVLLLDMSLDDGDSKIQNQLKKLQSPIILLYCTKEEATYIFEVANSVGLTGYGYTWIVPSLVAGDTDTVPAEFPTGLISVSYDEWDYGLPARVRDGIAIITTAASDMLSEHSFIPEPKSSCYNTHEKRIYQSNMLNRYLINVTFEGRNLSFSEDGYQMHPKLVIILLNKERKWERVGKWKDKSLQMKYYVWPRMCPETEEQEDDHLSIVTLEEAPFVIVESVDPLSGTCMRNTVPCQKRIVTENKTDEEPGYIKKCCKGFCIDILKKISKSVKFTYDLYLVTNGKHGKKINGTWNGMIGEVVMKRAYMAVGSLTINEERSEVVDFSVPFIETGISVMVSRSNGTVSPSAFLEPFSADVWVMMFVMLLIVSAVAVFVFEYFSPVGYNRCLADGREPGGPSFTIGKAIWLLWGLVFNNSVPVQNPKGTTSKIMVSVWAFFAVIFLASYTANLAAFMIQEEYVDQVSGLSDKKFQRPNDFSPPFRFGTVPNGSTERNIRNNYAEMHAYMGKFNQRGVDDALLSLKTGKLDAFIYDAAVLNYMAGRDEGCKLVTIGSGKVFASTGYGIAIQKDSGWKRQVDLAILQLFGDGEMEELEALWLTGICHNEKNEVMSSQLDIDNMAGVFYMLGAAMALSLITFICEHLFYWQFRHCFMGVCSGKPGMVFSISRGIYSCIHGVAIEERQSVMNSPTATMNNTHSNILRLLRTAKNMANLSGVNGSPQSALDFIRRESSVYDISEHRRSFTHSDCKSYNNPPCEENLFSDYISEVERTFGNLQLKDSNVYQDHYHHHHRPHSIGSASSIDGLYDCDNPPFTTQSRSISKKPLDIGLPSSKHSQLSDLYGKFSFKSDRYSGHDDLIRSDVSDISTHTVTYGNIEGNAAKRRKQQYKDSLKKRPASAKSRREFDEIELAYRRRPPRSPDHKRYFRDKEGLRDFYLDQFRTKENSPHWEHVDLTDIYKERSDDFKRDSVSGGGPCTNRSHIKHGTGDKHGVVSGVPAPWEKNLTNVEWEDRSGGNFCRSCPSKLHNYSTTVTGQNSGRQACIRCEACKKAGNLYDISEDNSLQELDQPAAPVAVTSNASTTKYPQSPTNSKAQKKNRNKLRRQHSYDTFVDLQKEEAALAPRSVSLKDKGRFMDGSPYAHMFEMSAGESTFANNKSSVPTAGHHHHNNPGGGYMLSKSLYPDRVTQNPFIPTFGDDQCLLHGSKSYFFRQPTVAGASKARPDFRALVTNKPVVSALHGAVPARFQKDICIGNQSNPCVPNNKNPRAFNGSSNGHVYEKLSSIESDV
- protocol: Cell-based calcium flux (FLIPR) assay on cloned human NR1/NR2B ion channels expressed in mammalian cells
- applied conditions: standard assay; glutamate at ~EC80; FLIPR calcium flux
Could you please report measured IC50 for the items listed next?

Hi there! I need IC50 for each item below, if you can.
1. Cc1cccc(OCc2cn(-c3ccc(F)c(C(C)(F)F)c3)nn2)n1 [Example 556]
2. Fc1cccc(-n2cc(COc3ncc(Cl)cn3)nn2)c1F [Example 605]

1. 0.098 µM
2. 4.36 µM

---

So I've got a bunch of molecules here, and I need their IC50 values.
- system tested: human GluN1/GluN2B NMDA receptors (Homo sapiens, UniProt Q05586+Q13224)
- protocol: Cell-based calcium flux (FLIPR) assay on cloned human NR1/NR2B ion channels expressed in mammalian cells
- applied conditions: standard assay; human GluN1/GluN2B, calcium flux (FLIPR), glutamate ~EC80
Answers are plain numbers, in µM.

Consider the following illustrative entries.
INSERT INTO assay_data (molecule, readout_type, recorded_number) VALUES
  ('Cc1cnc(OCc2cn(-c3cccc(C(F)F)c3)nn2)nc1 [Example 89]', 'IC50', 0.011),
  ('CC(C)c1cnc(OCc2cn(-c3ccc(F)c(Br)c3)nn2)nc1 [Example 43]', 'IC50', 0.005),
  ('FC(F)Oc1ccc(-n2cc(COc3ncccn3)nn2)cc1 [Example 329]', 'IC50', 0.854);

Hello, I would appreciate it if you could give IC50 for each entry below.
1. Cc1cc(C)cc(-n2cc(COc3ncc(F)cn3)nn2)c1 [Example 361]
2. Fc1ccc(-n2cc(COc3ncccn3)nn2)cc1C(F)(F)F [Example 82]
3. COc1cc(-n2cc(COc3ncc(C)cn3)nn2)ccc1Cl [Example 88]
4. FC(F)c1cccc(-n2cc(COc3nccc(N4CCCCC4)n3)nn2)c1 [Example 285]
5. Fc1cnc(OCc2cn(-c3ccc(F)c(C(F)(F)F)c3)nn2)nc1 [Example 84]
6. FC(F)Oc1cnc(OCc2cn(-c3cccc(C(F)F)c3)nn2)nc1 [Example 276]
7. Cc1ccnc(OC(C)c2cn(-c3ccc(Cl)c(OC(F)F)c3)nn2)n1 (racemic) [Example 59]

1. 0.587
2. 0.126
3. 0.019
4. 0.299
5. 0.072
6. 0.031
7. 0.04

For each entry beneath this line, provide reported IC50.
1. FC(F)c1cc(-n2cc(COc3ncc(C(F)(F)F)cn3)nn2)ccc1Cl [Example 45]
2. Cc1cnc(OCc2nnn(-c3ccc(F)c(C(C)(F)F)c3)c2C)nc1 [Example 173]
3. Cc1cnc(OCc2cn(-c3ccc(Cl)c(C(F)F)c3)nn2)nc1 [Example 31]
4. FC(F)Oc1cnc(OCc2cn(-c3ccc(Cl)cc3)nn2)nc1 [Example 227]
5. FC(F)c1cc(-n2cc(CNc3ncc(C(F)(F)F)cn3)nn2)ccc1Cl [Example 205]
6. Cc1cnc(OCc2cn(-c3cccc(Br)c3)nn2)nc1 [Example 234]

1. 0.004
2. 0.465
3. 0.001
4. 0.151
5. 0.616
6. 0.022

Please give IC50, item by item, for the list that follows.
1. CC(C)(O)c1cnc(OCc2cn(-c3ccc(F)c(C4CC4)c3)nn2)nc1 [Example 180]
2. C[C@H](Oc1ncccn1)c1cn(-c2ccc(Cl)c(OC(F)F)c2)nn1 [Example 378]
3. CCc1cnc(OCc2cn(-c3ccc(F)c(Br)c3)nn2)nc1 [Example 40]
4. Cc1ccnc(OCc2cn(-c3ccc(F)c(C(F)(F)F)c3)nn2)n1 [Example 83]

1: 0.133; 2: 2.3; 3: 0.001; 4: 0.02

Lab note: each molecule below needs its IC50 filled in.
1. Fc1cnc(OCc2cn(-c3cccc(F)c3)nn2)nc1 [Example 229]
2. CC(C)c1ccnc(OCc2cn(-c3cccc(C(F)F)c3)nn2)n1 [Example 270]

[2.98, 0.617]

Your task in this section: give IC50 for each listed record.
1. FC(F)c1cccc(-n2cc(COc3nccc(N4CCCC4)n3)nn2)c1 [Example 284]
2. FC(F)c1cccc(-n2cc(COc3ncc(C(F)(F)F)cn3)nn2)c1 [Example 275]

1. 0.094
2. 0.025

Parameter requested: IC50. Apply to each item below.
1. Cc1cnc(Cl)nc1OCc1cn(-c2cccc(C(F)F)c2)nn1 [Example 280]
2. COC(C)c1cnc(OCc2cn(-c3cccc(C(C)(F)F)c3)nn2)nc1 (racemic) [Example 311]
3. Cc1cccc(-n2cc(COc3ncccn3)nn2)c1 [Example 242]
4. OCc1cnc(OCc2cn(-c3cccc(C(F)F)c3)nn2)nc1 [Example 160]
5. CC(Oc1ncccn1)c1cn(-c2ccc(Cl)c(OC(F)F)c2)nn1 (racemic) [Example 53]

1. 0.173
2. 1.58
3. 0.647
4. 0.173
5. 0.026

Kindly give each listed record's IC50.
1. COc1cc(Cl)cnc1OCc1cn(-c2ccc(Cl)c(OC(F)F)c2)nn1 [Example 106]
2. Fc1ccc(-n2cc(COc3ccccn3)nn2)cc1OC(F)F [Example 4]
3. C[C@H](Oc1ncc(Cl)cn1)c1cn(-c2ccc(Cl)c(OC(F)F)c2)nn1 [Example 379]
4. Cc1cnc(OC(C)c2cn(-c3ccc(Cl)c(OC(F)F)c3)nn2)nc1 (racemic) [Example 56]
5. CC(C)c1cccc(-n2cc(COc3ncc(F)cn3)nn2)c1 [Example 263]

0.276
0.392
0.575
0.028
0.227

State recorded IC50 for all listed molecules.
1. Cc1cnc(O[C@H](C)c2cn(-c3ccc(Cl)c(OC(F)F)c3)nn2)nc1 [Example 376]
2. Fc1ccc(-n2cc(COc3ncccn3)nn2)cc1Br [Example 9]
3. CCc1cnc(OCc2cn(-c3ccc(F)c(C)c3F)nn2)nc1 [Example 39]

0.011
0.02
0.015
